Cited source for all entries: patent US20180250308A1

Target: polyamine binding site of the NR2B subunit of the NMDA receptor (Homo sapiens, UniProt Q05586+Q13224)
Construct: expression induced with dexamethasone, then membrane homogenate prepared
Sequence (Q13224 27-1484, other chains not shown): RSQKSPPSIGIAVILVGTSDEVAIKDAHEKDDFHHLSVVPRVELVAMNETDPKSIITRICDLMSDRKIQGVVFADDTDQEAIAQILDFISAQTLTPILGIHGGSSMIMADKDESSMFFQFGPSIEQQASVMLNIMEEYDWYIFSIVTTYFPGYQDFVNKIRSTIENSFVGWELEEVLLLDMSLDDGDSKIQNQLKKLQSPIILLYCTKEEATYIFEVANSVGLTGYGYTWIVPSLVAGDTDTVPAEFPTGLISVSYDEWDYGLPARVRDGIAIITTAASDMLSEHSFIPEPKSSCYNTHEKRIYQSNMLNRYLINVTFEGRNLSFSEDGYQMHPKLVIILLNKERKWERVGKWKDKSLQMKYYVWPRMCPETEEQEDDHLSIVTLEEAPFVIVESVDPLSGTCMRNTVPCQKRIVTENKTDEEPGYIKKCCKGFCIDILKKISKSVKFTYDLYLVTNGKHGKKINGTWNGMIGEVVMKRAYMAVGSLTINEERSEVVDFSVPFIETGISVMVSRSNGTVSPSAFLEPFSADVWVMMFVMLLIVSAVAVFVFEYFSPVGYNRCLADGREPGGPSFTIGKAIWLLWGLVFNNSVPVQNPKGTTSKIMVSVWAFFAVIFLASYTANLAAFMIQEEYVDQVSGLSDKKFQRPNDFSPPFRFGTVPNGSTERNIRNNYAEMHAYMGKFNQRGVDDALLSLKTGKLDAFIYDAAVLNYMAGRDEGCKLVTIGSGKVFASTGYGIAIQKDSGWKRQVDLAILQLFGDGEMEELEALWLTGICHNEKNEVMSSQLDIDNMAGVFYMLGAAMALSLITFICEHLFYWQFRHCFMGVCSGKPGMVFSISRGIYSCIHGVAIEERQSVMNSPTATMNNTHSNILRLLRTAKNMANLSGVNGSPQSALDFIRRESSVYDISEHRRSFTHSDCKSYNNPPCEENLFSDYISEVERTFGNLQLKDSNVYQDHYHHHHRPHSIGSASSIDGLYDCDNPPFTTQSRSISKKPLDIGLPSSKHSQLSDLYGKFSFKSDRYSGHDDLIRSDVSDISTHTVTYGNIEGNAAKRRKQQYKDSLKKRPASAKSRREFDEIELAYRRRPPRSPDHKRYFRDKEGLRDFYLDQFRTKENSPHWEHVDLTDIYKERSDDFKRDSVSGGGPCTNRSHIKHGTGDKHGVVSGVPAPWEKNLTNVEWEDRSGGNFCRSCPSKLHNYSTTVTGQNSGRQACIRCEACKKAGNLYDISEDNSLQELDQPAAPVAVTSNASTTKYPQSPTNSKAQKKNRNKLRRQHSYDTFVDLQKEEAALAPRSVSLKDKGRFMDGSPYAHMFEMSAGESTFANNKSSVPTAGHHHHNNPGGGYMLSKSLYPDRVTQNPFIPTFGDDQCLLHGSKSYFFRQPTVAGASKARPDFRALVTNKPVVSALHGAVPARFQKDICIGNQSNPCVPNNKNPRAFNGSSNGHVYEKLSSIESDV
Assay: Filtration-based receptor binding assay with [3H]-Ifenprodil, NR2B subunit
Conditions: membranes of L(tk-) cells expressing NR1-1a/NR2B, Ki by Cheng-Prusoff, mean ± SEM, read-out: affinity to the NR2B binding site of the NMDA receptor
Procedure: The determination was performed using a filtration-based receptor binding assay on 96-well-multiplates for the polyamine binding site of the NR2B subunit of the NMDA receptor using [^3H]-Ifenprodil as radioligand. […] For the binding assay, the cell pellet was resuspended in PBS buffer and the number of cells was determined using an improved Neubauer's counting chamber (VWR, Darmstadt, Germany). […]
readout_kind: Ki
Number first, unit second: that is the form wanted.

Qu. Specify reported Ki for the molecule shown: COc1ccc2c(c1)CCN(CCCCc1ccccc1)CC2O (stereo not shown) [formula (4)]
Ans. 15.3 nM
